Hi there, I'd appreciate the recorded TGI for every entry that follows.
test system: EKVX NSCLC; assay: NCI tumour cell line growth inhibition, 48 h

• CC1OC(n2cc(Cl)c(=O)[nH]c2=O)C=C(OC(=O)c2ccccc2)C1=O (stereo not drawn) = > 100 µM

Provide TGI for all items below, preserving their order.
1. CC(C)(C)OC(=O)NC(CSCc1ccc(C(=O)c2ccccc2)cc1)C(=O)O (stereo not drawn)
2. O=C1C(Cl)C2(CC(/C=C/c3cccs3)=NN2c2cccc(S(=O)(=O)O)c2)N1c1nc2ccccc2s1 (stereo not drawn)

1. > 100 µM
2. > 100 µM

Provide TGI for all items below, preserving their order.
1. Cn1cc(-c2csc(-c3c[nH]c4ccccc34)n2)c2cnccc21
2. Cn1ccc2c1SSSSS2
3. CN(C)CCONC(=O)C12CC3CC(CC(C3)C1)C2

1. 4.61 µM
2. > 100 µM
3. > 100 µM

Provide TGI for all items below, preserving their order.
1. COc1ccc(OC)c(C#N)c1C#N (tested in a mixture with another compound)
2. CCCN1C/C(=C\c2ccc(O)c(OC)c2)C(=O)/C(=C/c2ccc(O)c(OC)c2)C1
3. CNC(=S)/C(C#N)=C(\N)N1CCN(C)CC1

1: > 88 µM; 2: > 100 µM; 3: > 100 µM

Provide TGI for all items below, preserving their order.
1. Cc1[nH]n(-c2ncc(C(=O)O)c(=O)[nH]2)c(=O)c1CCO
2. COc1cc(C(=O)N(C)N(C)C)cc(OC)c1OC
3. Clc1ccccc1/C=C/c1ccnc2ccccc12
4. CC1=CC2C(=O)N(c3ccccc3)C(=O)C2CC1n1[nH]c(=O)n(Cc2ccccc2)c1=O (stereo not drawn)
5. ONCCCn1cnc2c(NC3CC3)ncnc21
6. O=c1c(=O)c2cscc2c1=O

> 100 µM
> 10 µM
17.9 µM
> 100 µM
> 100 µM
10.7 µM
